Hello, the source for this data is paper PMC4745783, in case you need it.

System: A549 cells
Type: cell-based, human
condition-set: 48 h
Where no end group is shown, it is not given here.
assay-metric: IC50 (µM)
# output: bare number, implied unit µM

Return reported IC50; argument: HRGLKWEIVPWSGCG [HGP-1] 496
